# Test system: HOP-92 NSCLC
# measurement.description: NCI tumour cell line growth inhibition, 48 h
TGI for assorted compounds

Worked examples follow.
# compound, TGI
records = [
    ("CCOc1cc2c(cc1O)/C(=N\\O)C[C@@H]1[C@@H]2CC[C@]2(C)[C@@H](O)CC[C@@H]12", "> 100 µM"),
    ("Cc1cc(C2=NNC(=O)Cc3cc4c(cc32)OCCO4)cc(C)c1N", "> 100 µM"),
    ("O=C(O)c1ccc(-c2nc3ccc(Cl)cc3[nH]2)cc1", "> 100 µM"),
    ("Cc1cccc2c(N)c3cccc(C(=O)NCC[N+](C)(C)Cc4sccc4[N+](=O)[O-])c3nc12", "> 100 µM"),
    ("O=C1Nc2ccccc2S/C1=C\\c1ccccc1C(F)(F)F", "> 100 µM"),
]

API: the following record is the query input.
Need TGI, item COc1c(NC(C)=O)cc(C)cc1NC(C)=O
> 100 µM
